// provenance: PubChem BioAssay (NCI)

System: MDA-MB-231 breast
Assay: NCI-60 one-dose screen, 48 h (100 = growth as untreated, 0 = no growth, -100 = all killed)
Details: 10 µM unless noted
About 83,000 compounds went through this panel and 20% of them were active in at least one assay; those are over-represented in the sample as a whole.
assay_readout: growth (%)
Expressed in %, but write only the number.

Exam item: # input compound: COc1cc(/C=C/C(=O)c2c(C)oc3nc[nH]c(=O)c23)ccc1O ; wanted: its growth
Marked response: 106

Exam item: # input compound: Nc1ccccc1NC(=O)c1ccc(CN2CCC/C(=C\c3cccc(Cl)c3)C2=O)cc1 ; wanted: its growth
Marked response: -2.78

Exam item: # input compound: CC(=O)OC1CCC2(C)C(CCC3C4CC=C(C(C)=O)C4(C)OC(=O)CC32)C1 (stereo not given) ; wanted: its growth
Marked response: 35.3

Exam item: # input compound: C=Cc1cc[n+](CCCCCCCCCCCC)cc1 ; wanted: its growth
Marked response: 99.9

Exam item: # input compound: CSc1nc(O)c(-c2ccccc2)c(=O)[nH]1 ; wanted: its growth
Marked response: 98.5

Exam item: # input compound: NC(=S)N/N=C(/c1ccccc1)c1ccccc1N ; wanted: its growth
Marked response: 85.8

Exam item: # input compound: CCOC(=O)Oc1c(OC)cc(C(=O)O[C@@H]2C[C@@H]3CN4CCc5c([nH]c6cc(OC)ccc56)[C@H]4C[C@@H]3[C@H](C(=O)OC)[C@H]2OC)cc1OC ; wanted: its growth
Marked response: 43.2

Exam item: # input compound: O=C(O)CNC(=O)CN1C(=O)c2ccccc2C1=O ; wanted: its growth
Marked response: 114

Exam item: # input compound: COc1cc(NCCCN(CC(C)C)CC(C)C)c2ncccc2c1 ; wanted: its growth
Marked response: 88.7

Exam item: # input compound: COc1cccc(-c2nc3occn3c2-c2ccnc(NCCCNS(=O)(=O)c3cccc(F)c3)n2)c1 ; wanted: its growth
Marked response: 104
